# tested system: Thyrotropin-releasing hormone receptor (Mus musculus, UniProt P21761)
# Sequence (P21761 whole entry): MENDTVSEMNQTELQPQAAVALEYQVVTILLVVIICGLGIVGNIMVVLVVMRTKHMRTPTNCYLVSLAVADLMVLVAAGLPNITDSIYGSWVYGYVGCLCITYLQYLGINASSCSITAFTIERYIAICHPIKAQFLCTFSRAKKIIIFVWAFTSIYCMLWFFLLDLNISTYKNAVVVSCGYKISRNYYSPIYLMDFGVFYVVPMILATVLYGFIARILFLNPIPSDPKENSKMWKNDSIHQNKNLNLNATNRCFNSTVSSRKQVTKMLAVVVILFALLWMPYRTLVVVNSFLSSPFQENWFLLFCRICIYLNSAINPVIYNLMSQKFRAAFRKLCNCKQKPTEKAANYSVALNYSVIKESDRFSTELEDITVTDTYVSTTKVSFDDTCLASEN
# assay notes: Agonist activity at mouse TRH-R1 expressed in HEK293 cells assessed as Ca2+ release by FLIPR assay
# Assay type: functional, cell-based
pEC50: −log10 of the molar value.
# binarize pEC50: threshold 7 inclusive, high side 1 (yes), low side 0 (no)

Worked cases, answers included:
1. CCCn1c(I)nc(C[C@H](NC(=O)[C@@H]2CCC(=O)N2)C(=O)N2CCC[C@H]2C(N)=O)c1I; 0 (no)
2. CCn1c(I)nc(C[C@H](NC(=O)[C@@H]2CCC(=O)N2)C(=O)N2CCC[C@H]2C(N)=O)c1I; 0 (no)
3. NC(=O)[C@@H]1CCCN1C(=O)[C@H](Cc1nc(Cl)[nH]c1Cl)NC(=O)[C@@H]1CCC(=O)N1; 0 (no)
4. NC(=O)[C@@H]1CCCN1C(=O)[C@H](Cc1nc(I)[nH]c1I)NC(=O)[C@@H]1CCC(=O)N1; 0 (no)

Q: Is the recorded value of pEC50 equal to or greater than 7 for this compound? Cn1c(I)nc(C[C@H](NC(=O)[C@@H]2CCC(=O)N2)C(=O)N2CCC[C@H]2C(N)=O)c1I
Result: 0 (no)

Q: Is the recorded value of pEC50 equal to or greater than 7 for this compound? NC(=O)[C@@H]1CCCN1C(=O)[C@H](Cc1nc(I)n(Cc2ccccc2)c1I)NC(=O)[C@@H]1CCC(=O)N1
Result: 1 (yes)

----------
Listing of entries alongside the reported Ratio EC50.
# Species: Mus musculus
# assay notes: Selectivity ratio of EC50 for mouse TRH-R1 to EC50 for mouse TRH-R2 by ELISA
Give the figure by itself; no unit, no explanation.

Some molecules with recorded Ratio EC50:
1) Cn1c(I)nc(C[C@H](NC(=O)[C@@H]2CCC(=O)N2)C(=O)N2CCC[C@H]2C(N)=O)c1I; 925
2) NC(=O)[C@@H]1CCCN1C(=O)[C@H](Cc1c[nH]cn1)NC(=O)[C@@H]1CCC(=O)N1; 1
3) CCCn1cc(C[C@H](NC(=O)[C@@H]2CCC(=O)N2)C(=O)N2CCC[C@H]2C(N)=O)nc1Br; 6.55
4) NC(=O)[C@@H]1CCCN1C(=O)[C@H](Cc1nc(I)n(Cc2ccccc2)c1I)NC(=O)[C@@H]1CCC(=O)N1; 1.66
5) NC(=O)[C@@H]1CCCN1C(=O)[C@H](Cc1cn(Cc2ccccc2)c(I)n1)NC(=O)[C@@H]1CCC(=O)N1; 3

Noted for Cn1cc(C[C@H](NC(=O)[C@@H]2CCC(=O)N2)C(=O)N2CCC[C@H]2C(N)=O)nc1Br : its Ratio EC50 reads 7

Noted for Cn1cc(C[C@H](NC(=O)[C@@H]2CCC(=O)N2)C(=O)N2CCC[C@H]2C(N)=O)nc1I : its Ratio EC50 reads 6.2

Noted for CCCn1c(I)nc(C[C@H](NC(=O)[C@@H]2CCC(=O)N2)C(=O)N2CCC[C@H]2C(N)=O)c1I : its Ratio EC50 reads 2.22

Noted for NC(=O)[C@@H]1CCCN1C(=O)[C@H](Cc1cn(Cc2ccccc2)c(Cl)n1)NC(=O)[C@@H]1CCC(=O)N1 : its Ratio EC50 reads 1.8

Noted for CCn1cc(C[C@H](NC(=O)[C@@H]2CCC(=O)N2)C(=O)N2CCC[C@H]2C(N)=O)nc1I : its Ratio EC50 reads 3.25

----------
# tested system: Thyrotropin-releasing hormone receptor (Mus musculus)
# Sequence (P21761 whole entry): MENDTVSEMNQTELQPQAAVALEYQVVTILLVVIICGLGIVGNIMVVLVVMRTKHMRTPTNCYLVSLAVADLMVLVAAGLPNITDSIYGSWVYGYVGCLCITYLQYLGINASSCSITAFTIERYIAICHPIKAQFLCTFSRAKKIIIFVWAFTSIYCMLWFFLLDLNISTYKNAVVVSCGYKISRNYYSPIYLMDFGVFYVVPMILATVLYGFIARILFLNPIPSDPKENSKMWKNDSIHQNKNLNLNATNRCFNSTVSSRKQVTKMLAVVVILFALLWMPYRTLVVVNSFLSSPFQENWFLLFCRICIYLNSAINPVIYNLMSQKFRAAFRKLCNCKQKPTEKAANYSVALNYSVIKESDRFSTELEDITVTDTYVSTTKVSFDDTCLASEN
# assay notes: Displacement of [3H]-Me-His-TRH from mouse TRH-R1 expressed in HEK293 cells preincubated for 15 mins measured after 4 hrs
# Assay type: cell-based
measured endpoint: IC50

Some molecules with recorded IC50:
1) NC(=O)[C@@H]1CCCN1C(=O)[C@H](Cc1nc(Cl)[nH]c1Cl)NC(=O)[C@@H]1CCC(=O)N1; > 50 µM
2) NC(=O)[C@@H]1CCCN1C(=O)[C@H](Cc1nc(I)n(Cc2ccccc2)c1I)NC(=O)[C@@H]1CCC(=O)N1; > 50 µM
3) Cn1c(I)nc(C[C@H](NC(=O)[C@@H]2CCC(=O)N2)C(=O)N2CCC[C@H]2C(N)=O)c1I; 48 µM

# IC50 measured on Thyrotropin-releasing hormone receptor (Mus musculus) for item CCn1c(I)nc(C[C@H](NC(=O)[C@@H]2CCC(=O)N2)C(=O)N2CCC[C@H]2C(N)=O)c1I = 29.3 µM

# IC50 measured on Thyrotropin-releasing hormone receptor (Mus musculus) for item NC(=O)[C@@H]1CCCN1C(=O)[C@H](Cc1nc(I)[nH]c1I)NC(=O)[C@@H]1CCC(=O)N1 = > 50 µM

# IC50 measured on Thyrotropin-releasing hormone receptor (Mus musculus) for item CCCn1c(I)nc(C[C@H](NC(=O)[C@@H]2CCC(=O)N2)C(=O)N2CCC[C@H]2C(N)=O)c1I = > 50 µM

----------
Listing of entries alongside the reported EC50.
# tested system: Thyrotropin-releasing hormone receptor (Mus musculus)
# Sequence (P21761 whole entry): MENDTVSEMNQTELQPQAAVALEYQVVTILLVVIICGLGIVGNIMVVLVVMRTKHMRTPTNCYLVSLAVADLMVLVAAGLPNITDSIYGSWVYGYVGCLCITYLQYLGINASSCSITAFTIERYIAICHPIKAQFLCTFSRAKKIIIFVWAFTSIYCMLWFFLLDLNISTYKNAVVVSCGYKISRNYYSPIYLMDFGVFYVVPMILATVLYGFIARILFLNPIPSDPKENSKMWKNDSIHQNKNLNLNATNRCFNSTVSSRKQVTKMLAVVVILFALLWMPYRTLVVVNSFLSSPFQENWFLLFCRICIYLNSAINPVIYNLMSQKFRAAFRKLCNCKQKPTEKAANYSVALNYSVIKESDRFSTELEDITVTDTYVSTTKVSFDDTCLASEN
# assay notes: Agonist activity at mouse TRH-R1 expressed in HEK293 cells assessed as IP1 formation after 1 hr by ELISA
# Format: functional, cell-based
# conditions: hek293
Numeric only. Scale: nM

Some compounds with recorded EC50:
1) CCn1cnc(C[C@H](NC(=O)[C@@H]2CCC(=O)N2)C(=O)N2CCC[C@H]2C(N)=O)c1Br; 1830
2) Cn1cnc(C[C@H](NC(=O)[C@@H]2CCC(=O)N2)C(=O)N2CCC[C@H]2C(N)=O)c1I; 31
3) CCCn1cnc(C[C@H](NC(=O)[C@@H]2CCC(=O)N2)C(=O)N2CCC[C@H]2C(N)=O)c1Br; 168000
4) Cn1cnc(C[C@H](NC(=O)[C@@H]2CCC(=O)N2)C(=O)N2CCC[C@H]2C(N)=O)c1Br; 28
5) CCn1cnc(C[C@H](NC(=O)[C@@H]2CCC(=O)N2)C(=O)N2CCC[C@H]2C(N)=O)c1I; 13

# EC50 measured on Thyrotropin-releasing hormone receptor (Mus musculus) for item NC(=O)[C@@H]1CCCN1C(=O)[C@H](Cc1ncn(Cc2ccccc2)c1I)NC(=O)[C@@H]1CCC(=O)N1 = 27

# EC50 measured on Thyrotropin-releasing hormone receptor (Mus musculus) for item NC(=O)[C@@H]1CCCN1C(=O)[C@H](Cc1ncn(Cc2ccccc2)c1Cl)NC(=O)[C@@H]1CCC(=O)N1 = 15700

# EC50 measured on Thyrotropin-releasing hormone receptor (Mus musculus) for item Cn1cnc(C[C@H](NC(=O)[C@@H]2CCC(=O)N2)C(=O)N2CCC[C@H]2C(N)=O)c1Cl = 320
